Tested on: activated intestinal bacteria
Test: Intestinal bacterial transformation of AEOF
Format: in vitro ADME, human
Details: in AEOF 15.0, 30.0, 60.0 mg/mL, up to 72 h; single person derived- or multiple people-derived intestinal bacteria
ENDPOINT_LABEL: transformation by intestinal bacteria (in words)

# MOLECULE, RESULT
records = [
    ("O=c1c(O[C@@H]2O[C@H](CO)[C@@H](O)[C@H](O)[C@H]2O)c(-c2ccc(O)c(O)c2)oc2cc(O)cc(O)c12 [isoquercetin]", "completely transformed"),
    ("COc1cc(C(=O)O)cc(CC=C(C)C)c1OC1OC(CO)C(O)C(O)C1O (stereo not shown) [trollioside]", "completely transformed"),
]

----------
Test system: everted gut sacs (jejunum)
Experiment: Absorption experiment with everted gut sacs
Settings: intestinal bacterial transformed AEOF; third of three lines per compound (highest concentration, not given)

# COMPOUND, UNIT_ANNOTATION, After transported with everted gut sacs
data = [
    ("O=c1c(O[C@@H]2O[C@H](CO)[C@@H](O)[C@H](O)[C@H]2O)c(-c2ccc(O)c(O)c2)oc2cc(O)cc(O)c12", "µg/mL", 0.00),
    ("O=c1c(O)c(-c2ccc(O)c(O)c2)oc2cc(O)cc(O)c12", "µg/mL", 0.00),
    ("O=c1cc(-c2ccc(O)c(O)c2)oc2c(C3OC(CO)C(O)C(O)C3OC3OC(CO)C(O)C(O)C3O)c(O)cc(O)c12 (stereo not drawn)", "µg/mL", 5.38),
    ("COc1ccc(C(=O)O)cc1OC", "µg/mL", 2.02),
    ("O=c1cc(-c2ccc(O)cc2)oc2c([C@@H]3O[C@H](CO)[C@@H](O)[C@H](O)[C@H]3O)c(O)cc(O)c12", "µg/mL", 0.50),
    ("COc1cc(C(=O)O)cc(CC=C(C)C)c1O", "µg/mL", 7.74),
    ("O=c1cc(-c2ccc(O)c(O)c2)oc2c([C@@H]3O[C@H](CO)[C@@H](O)[C@H](O)[C@H]3O)c(O)cc(O)c12", "µg/mL", 1.04),
    ("COc1cc(C(=O)O)cc(CC=C(C)C)c1OC1OC(CO)C(O)C(O)C1O (stereo not drawn) [trollioside]", "µg/mL", 0.00),
    ("O=C1CC[C@H]2c3cc(O)c(O)cc3CCN12", "µg/mL", 14.76),
]

----------
Some molecules, each annotated with its measured Papp at 180 min, 20 mg/mL.
Assay: Absorption experiment with everted gut sacs
Settings: Sprague-Dawley, rat
ENDPOINT_LABEL: Papp at 180 min, 20 mg/mL

# MOLECULE, RESULT
rows = [
    ("O=c1cc(-c2ccc(O)cc2)oc2c([C@@H]3O[C@H](CO)[C@@H](O)[C@H](O)[C@H]3O)c(O)cc(O)c12", "15.5 ×10⁻⁶ cm/s"),
    ("COc1ccc(C(=O)O)cc1OC", "111 ×10⁻⁶ cm/s"),
    ("O=c1cc(-c2ccc(O)c(O)c2)oc2c(C3OC(CO)C(O)C(O)C3OC3OC(CO)C(O)C(O)C3O)c(O)cc(O)c12 (stereo not drawn)", "22.3 ×10⁻⁶ cm/s"),
    ("O=c1cc(-c2ccc(O)c(O)c2)oc2c([C@@H]3O[C@H](CO)[C@@H](O)[C@H](O)[C@H]3O)c(O)cc(O)c12", "18.5 ×10⁻⁶ cm/s"),
    ("COc1cc(C(=O)O)cc(CC=C(C)C)c1O", "534 ×10⁻⁶ cm/s"),
    ("O=C1CC[C@H]2c3cc(O)c(O)cc3CCN12", "107 ×10⁻⁶ cm/s"),
]

----------
Test system: activated intestinal bacteria
Experiment: Intestinal bacterial transformation of AEOF
Assay type: in vitro ADME, human
Settings: content in the extract; second of three lines per compound (middle extract concentration, not given)
In plain terms, low Before transformed by intestinal bacteria, meaning strictly below 6 µg/mL, gives t, and everything else gives f.

# COMPOUND, GROUP
measured = [
    ("O=C1CC[C@H]2c3cc(O)c(O)cc3CCN12", "f"),
    ("O=c1cc(-c2ccc(O)cc2)oc2c([C@@H]3O[C@H](CO)[C@@H](O)[C@H](O)[C@H]3O)c(O)cc(O)c12", "t"),
    ("O=c1cc(-c2ccc(O)c(O)c2)oc2c([C@@H]3O[C@H](CO)[C@@H](O)[C@H](O)[C@H]3O)c(O)cc(O)c12", "f"),
    ("O=c1c(O[C@@H]2O[C@H](CO)[C@@H](O)[C@H](O)[C@H]2O)c(-c2ccc(O)c(O)c2)oc2cc(O)cc(O)c12", "t"),
    ("COc1cc(C(=O)O)cc(CC=C(C)C)c1OC1OC(CO)C(O)C(O)C1O (stereo not drawn) [trollioside]", "f"),
    ("O=c1c(O)c(-c2ccc(O)c(O)c2)oc2cc(O)cc(O)c12", "t"),
    ("COc1cc(C(=O)O)cc(CC=C(C)C)c1O", "t"),
    ("O=c1cc(-c2ccc(O)c(O)c2)oc2c(C3OC(CO)C(O)C(O)C3OC3OC(CO)C(O)C(O)C3O)c(O)cc(O)c12 (stereo not drawn)", "f"),
]

----------
Tested on: activated intestinal bacteria
Experiment: Intestinal bacterial transformation of AEOF
Assay type: in vitro ADME, human
Conditions: content in the extract; third of three lines per compound (highest extract concentration, not given)
ENDPOINT_LABEL: Before transformed by intestinal bacteria (µg/mL)

# COMPOUND, TESTED_SYSTEM, NUMERIC_VALUE
records = [
    ("COc1cc(C(=O)O)cc(CC=C(C)C)c1OC1OC(CO)C(O)C(O)C1O (stereo not drawn) [trollioside]", "activated intestinal bacteria", 26.84),
    ("O=c1c(O)c(-c2ccc(O)c(O)c2)oc2cc(O)cc(O)c12 [quercetin]", "activated intestinal bacteria", 7.38),
    ("COc1ccc(C(=O)O)cc1OC [veratric acid]", "activated intestinal bacteria", 13.39),
    ("O=c1c(O[C@@H]2O[C@H](CO)[C@@H](O)[C@H](O)[C@H]2O)c(-c2ccc(O)c(O)c2)oc2cc(O)cc(O)c12 [isoquercetin]", "activated intestinal bacteria", 1.38),
    ("O=c1cc(-c2ccc(O)cc2)oc2c([C@@H]3O[C@H](CO)[C@@H](O)[C@H](O)[C@H]3O)c(O)cc(O)c12 [vitexin]", "activated intestinal bacteria", 11.04),
    ("O=c1cc(-c2ccc(O)c(O)c2)oc2c(C3OC(CO)C(O)C(O)C3OC3OC(CO)C(O)C(O)C3O)c(O)cc(O)c12 [2″-O-β-L-galactopyranosylorientin]", "activated intestinal bacteria", 104.39),
    ("O=C1CC[C@H]2c3cc(O)c(O)cc3CCN12 [trolline]", "activated intestinal bacteria", 73.23),
    ("O=c1cc(-c2ccc(O)c(O)c2)oc2c([C@@H]3O[C@H](CO)[C@@H](O)[C@H](O)[C@H]3O)c(O)cc(O)c12 [orientin]", "activated intestinal bacteria", 43.87),
    ("COc1cc(C(=O)O)cc(CC=C(C)C)c1O [proglobeflowery acid]", "activated intestinal bacteria", 6.67),
]

----------
Test system: everted gut sacs (jejunum)
Assay: Absorption experiment with everted gut sacs
Details: Everted gut sacs, extract 10 mg/mL, AP→BL
Some molecules, each annotated with its measured transport percentage.

# MOLECULE, transport percentage, %
measured = [
    ("O=C1CC[C@H]2c3cc(O)c(O)cc3CCN12", 29.42),
    ("COc1cc(C(=O)O)cc(CC=C(C)C)c1O", 9.60),
    ("O=c1cc(-c2ccc(O)c(O)c2)oc2c([C@@H]3O[C@H](CO)[C@@H](O)[C@H](O)[C@H]3O)c(O)cc(O)c12", 4.67),
    ("COc1ccc(C(=O)O)cc1OC", 27.04),
    ("O=c1cc(-c2ccc(O)cc2)oc2c([C@@H]3O[C@H](CO)[C@@H](O)[C@H](O)[C@H]3O)c(O)cc(O)c12", 5.55),
    ("O=c1cc(-c2ccc(O)c(O)c2)oc2c(C3OC(CO)C(O)C(O)C3OC3OC(CO)C(O)C(O)C3O)c(O)cc(O)c12 (stereo not drawn)", 8.76),
]

----------
System: Caco-2 cell monolayers
Assay: Transport experiment with Caco-2 cell monolayers
Conditions: Caco-2 cell monolayers, extract 30 mg/mL, AP→BL

# COMPOUND, transport percentage
measured = [
    ("O=C1CC[C@H]2c3cc(O)c(O)cc3CCN12 [trolline]", "130.00%"),
    ("O=c1cc(-c2ccc(O)c(O)c2)oc2c([C@@H]3O[C@H](CO)[C@@H](O)[C@H](O)[C@H]3O)c(O)cc(O)c12 [orientin]", "23.54%"),
    ("O=c1cc(-c2ccc(O)cc2)oc2c([C@@H]3O[C@H](CO)[C@@H](O)[C@H](O)[C@H]3O)c(O)cc(O)c12 [vitexin]", "40.90%"),
    ("COc1cc(C(=O)O)cc(CC=C(C)C)c1O [proglobeflowery acid]", "219.09%"),
    ("O=c1cc(-c2ccc(O)c(O)c2)oc2c(C3OC(CO)C(O)C(O)C3OC3OC(CO)C(O)C(O)C3O)c(O)cc(O)c12 [2″-O-β-L-galactopyranosylorientin]", "49.29%"),
    ("COc1ccc(C(=O)O)cc1OC [veratric acid]", "131.58%"),
]
